System: CD8TL clone A10
Assay: FRET analysis of TCR-CD8 proximity on tetramer^low CD8TLs
Type: cell-based, human
Details: tetramer^low cells, day 4 after stimulation, incubated 2 hours; o-phenantholin 30 μM, lactose 100 mM, LacNAc 1 mM, sucrose 100 nM; vs untreated cells
Description: To elaborate, samples of 2×10^5 cells were washed in Hank's medium that had been supplemented with 1% human serum, and were then resuspended, in 50 μl of medium, which contained either an anti-TCRβ-PE antibody (the “donor” antibody), or an anti-CD8α-Alexa647 antibody (the “acceptor” antibody), or both. The former was diluted at 1/20 and the latter, at 1/300. […] E1 is the fluorescence detected at 580 nm, following excitation at 488 nm. […]
endpoint: FRET between TCR and CD8 (TCR-CD8 proximity)

> print(dat)
                                   compound              tgt           reported.result
1  OC[C@H]1O[C@@H](O[C@H]2[C@H](O)[C@@H](O)C(O)O[C@@H]2CO)[C@H](O)[C@@H](O)[C@H]1O (stereo partly shown)  CD8TL clone A10  higher FRET efficiencies
2  CC(=O)N[C@H]1C(O)O[C@H](CO)[C@@H](O[C@@H]2O[C@H](CO)[C@H](O)[C@H](O)[C@H]2O)[C@@H]1O (stereo partly shown)  CD8TL clone A10  higher FRET efficiencies
